# System: pooled primary human hepatocyte suspensions
# PROCEDURE TEXT: Hepatic clearance assay (substrate depletion, LC-MS)
# APPLIED CONDITIONS: unadjusted hepatic intrinsic clearance, pooled primary human hepatocyte suspensions; Table S4; in µL/min/10^6 cells
ENDPOINT NAME: Unadj Clint
Give bare numbers.

Below, 5 molecules whose answers are already recorded.
[[record]]
molecule = "O=C(O)C=CC(F)(C(F)(F)F)C(F)(F)F"
value = 1.23

[[record]]
molecule = "O=S(=O)([O-])C(F)(F)C(F)(F)C(F)(F)C(F)(F)C(F)(F)C(F)(F)C(F)(F)C(F)(F)C(F)(F)C(F)(F)F.[Na+] [Sodium perfluorodecanesulfonate]"
value = 3.39

[[record]]
molecule = "O=S(=O)([O-])C(F)(F)C(F)(F)C(F)(F)C(F)(F)F.[K+] [Potassium perfluorobutanesulfonate]"
value = 0.00

[[record]]
molecule = "O=C(O)C(F)(F)C(F)(F)C(F)(F)C(F)(F)C(F)(F)C(F)(F)C(F)F"
value = 0.00

[[record]]
molecule = "O=S(=O)([O-])C(F)(F)C(F)(F)C(F)(F)C(F)(F)C(F)(F)C(F)(F)C(F)(F)C(F)(F)F.[K+] [Potassium perfluorooctanesulfonate]"
value = 2.96


Each molecule below has a reported value. Please supply its Unadj Clint.
1. O=C(O)C(F)(F)C(F)(F)C(F)(F)C(F)(F)C(F)(F)C(F)(F)C(F)(F)C(F)(F)C(F)(F)C(F)F [11H-PFUnDA, 11-H-Perfluoroundecanoic acid]
2. O=C(O)C(F)(F)C(F)(F)C(F)(F)C(F)(F)C(F)(F)C(F)(F)C(F)(F)C(F)F
3. O=C(O)C(F)(F)C(F)(F)C(F)F

1. 0.00
2. 0.00
3. 0.90

List Unadj Clint for every entry below, keeping the order given.
1. O=S(=O)(O)C(F)(F)C(F)(F)OC(F)(F)C(F)(F)F
2. O=C(O)C(F)(F)OC(F)(F)C(F)(F)OC(F)(F)C(F)(F)OC(F)(F)F
3. O=C(O)CCC(F)(F)C(F)(F)C(F)(F)F
4. O=C(Cl)C(F)(F)C(F)(F)C(F)(F)C(F)(F)C(F)(F)C(F)(F)C(F)(F)F [Pentadecafluorooctanoyl chloride]
5. O=C(O)C(F)(F)C(F)(F)F
6. O=C(O)C(F)(F)C(F)(F)C(F)(F)C(F)(F)C(F)(F)C(F)(F)C(F)(F)C(F)(F)C(F)(F)C(F)(F)F

1. 5.51
2. 0.00
3. 0.00
4. 0.00
5. 0.59
6. 0.00

###

For each entry below, report its Clint.1.Med value.
# Test system: pooled primary human hepatocyte suspensions
# PROCEDURE TEXT: Bayesian (MCMC, invitroTKstats) analysis of hepatic clearance data
# APPLIED CONDITIONS: Level-4 Bayesian estimate, posterior median; Clint.1 series (Clint.10 all NA)
Give bare numbers.

[[record]]
compound = "C[N+](C)(C)CCCNS(=O)(=O)C(F)(F)C(F)(F)C(F)(F)C(F)(F)C(F)(F)C(F)(F)C(F)(F)C(F)(F)F"
endpoint_name = "Clint.1.Med"
value = 0


State the recorded Clint.1.Med for every item in the following list.
1. O=C(Cl)C(F)(F)C(F)(F)C(F)(F)C(F)(F)C(F)(F)C(F)(F)F [Perfluoroheptanoyl chloride]
2. CNS(=O)(=O)C(F)(F)C(F)(F)C(F)(F)C(F)(F)C(F)(F)C(F)(F)C(F)(F)C(F)(F)F
3. O=C(O)C(F)(F)OC(F)(F)C(F)(F)OC(F)(F)C(F)(F)OC(F)(F)F [Perfluoro-3,6,9-trioxadecanoic acid]
4. O=C(O)C(F)(F)C(F)(F)C(F)(F)C(F)(F)C(F)(F)C(F)(F)C(F)(F)C(F)(F)F [Perfluorononanoic_acid]
5. O=C(O)C(F)(F)C(F)(F)C(F)(F)C(F)(F)C(F)(F)C(F)(F)C(F)(F)C(F)(F)C(F)(F)C(F)(F)C(F)(F)C(F)(F)C(F)(F)F [Perfluorotetradecanoic acid (PFTeDA)]
6. O=S(=O)(O)C(F)(F)C(F)(F)OC(F)(F)C(F)(F)F [Perfluoro(2-ethoxyethane)sulfonic acid]
7. O=S(=O)([O-])C(F)(F)C(F)(F)C(F)(F)C(F)(F)C(F)(F)C(F)(F)C(F)(F)C(F)(F)C(F)(F)C(F)(F)F.[Na+] [Sodium_perfluorodecanesulfonate]

1. 0
2. 48.7
3. 0
4. 10.4
5. 0
6. 266
7. 4.87

Go through the items and report each one's Clint.1.Med.
1. O=C(O)C(F)(F)C(F)(F)C(F)(F)C(F)(F)C(F)(F)C(F)(F)F [Perfluoroheptanoic acid (PFHpA)]
2. O=C(O)CCC(F)(F)C(F)(F)C(F)(F)C(F)(F)C(F)(F)F

1. 0
2. 19

Take each entry in turn and give its Clint.1.Med.
1. O=P(O)(O)CCC(F)(F)C(F)(F)C(F)(F)C(F)(F)C(F)(F)C(F)(F)F [2-(Perfluorohexyl)ethylphosphonic acid]
2. O=S(=O)(O)CCC(F)(F)C(F)(F)C(F)(F)C(F)(F)C(F)(F)C(F)(F)C(F)(F)C(F)(F)F
3. O=C(O)C(F)(F)OC(F)(F)C(F)(F)OC(F)(F)C(F)(F)C(F)(F)C(F)(F)F [Perfluoro-3,6-dioxadecanoic acid]
4. O=C(O)CCC(F)(F)C(F)(F)C(F)(F)C(F)(F)C(F)(F)C(F)(F)F [6:3 FTCA, 6:3 Fluorotelomer carboxylic acid]
5. O=C(O)C(F)(F)C(F)(F)C(F)(F)C(F)(F)F [Perfluoropentanoic_acid]

1. 0
2. 0
3. 0
4. 0
5. 0

Report Clint.1.Med for each item below.
1. O=C(O)C(F)(F)C(F)(F)C(F)F [4H-Perfluorobutanoic_acid]
2. O=C(O)C(F)(F)C(F)(F)C(F)(F)OC(F)(F)F [Perfluoro(4-methoxybutanoic)_acid]
3. O=C(O)CCC(F)(F)C(F)(F)C(F)(F)F [3:3 Fluorotelomer carboxylic acid]
4. O=S(=O)([O-])C(F)(F)C(F)(F)C(F)(F)C(F)(F)C(F)(F)C(F)(F)F.[K+] [Potassium perfluorohexanesulfonate]
5. O=C(O)C(F)(F)C(F)(F)C(F)(F)C(F)(F)C(F)(F)C(F)(F)C(F)F [8H-PFOA, 8H-Perfluorooctanoic acid]
6. NS(=O)(=O)C(F)(F)C(F)(F)C(F)(F)C(F)(F)C(F)(F)C(F)(F)F [Perfluorohexanesulfonamide]

0
0
0
0
0
0

###

# Tested on: pooled primary human hepatocyte suspensions
# PROCEDURE TEXT: Hepatic clearance assay (substrate depletion, LC-MS)
# APPLIED CONDITIONS: CLint value carried into HTTK/IVIVE; in µL/min/10^6 cells
So I've got a bunch of molecules here, and I need their CLint for HTTK values.
Answers are plain numbers.

Some molecules with known CLint for HTTK results, for comparison:
[[record]]
molecule = "O=C(O)CCC(F)(F)C(F)(F)C(F)(F)C(F)(F)C(F)(F)C(F)(F)F [6:3 FTCA, 6:3 Fluorotelomer carboxylic acid]"
assay_system = "pooled primary human hepatocyte suspensions"
value = 5.05

[[record]]
molecule = "O=S(=O)([O-])C(F)(F)C(F)(F)C(F)(F)C(F)(F)C(F)(F)C(F)(F)C(F)(F)C(F)(F)F.[K+]"
assay_system = "pooled primary human hepatocyte suspensions"
value = 0

[[record]]
molecule = "O=C(O)C(F)(F)C(F)(F)C(F)(F)OC(F)(F)F"
assay_system = "pooled primary human hepatocyte suspensions"
value = 1.5

[[record]]
molecule = "O=C(O)C(F)(F)C(F)(F)C(F)(F)C(F)(F)C(F)(F)C(F)(F)F [Perfluoroheptanoic acid (PFHpA)]"
assay_system = "pooled primary human hepatocyte suspensions"
value = 0

[[record]]
molecule = "O=S(=O)(Cl)C(F)(F)C(F)(F)C(F)(F)C(F)(F)C(F)(F)C(F)(F)C(F)(F)C(F)(F)F"
assay_system = "pooled primary human hepatocyte suspensions"
value = 0


// for each molecule in input: emit CLint for HTTK
1. O=C(O)C(F)(F)C(F)(F)C(F)(F)F [Perfluorobutanoic acid (PFBA)]
2. O=S(=O)([O-])C(F)(F)C(F)(F)C(F)(F)C(F)(F)C(F)(F)C(F)(F)C(F)(F)C(F)(F)C(F)(F)C(F)(F)F.[Na+] [Sodium perfluorodecanesulfonate (NaPFDS)]

0
0

###

I'd be grateful if you could share measured Fub for these entries.
# PROCEDURE TEXT: IVIVE: steady-state concentration (Css), generic HTTK model
# Set-up: species or system human
# APPLIED CONDITIONS: fub=fup/(B:P); Fub set to 1 if needed

Examples with answers:
[[record]]
molecule = "O=S(=O)([O-])C(F)(F)C(F)(F)C(F)(F)C(F)(F)C(F)(F)C(F)(F)C(F)(F)C(F)(F)C(F)(F)C(F)(F)F.[Na+] [Sodium perfluorodecanesulfonate (NaPFDS)]"
value = 0.096

[[record]]
molecule = "O=C(O)C(F)(F)C(F)(F)C(F)(F)C(F)(F)C(F)(F)C(F)(F)C(F)F"
value = 0.003818


Sample O=P(O)(O)CCC(F)(F)C(F)(F)C(F)(F)C(F)(F)C(F)(F)C(F)(F)F — what was its Fub?
0.02236
